- subject of test: human COX-2 (Homo sapiens, UniProt P35354)
- Construct: expressed in transfected cells; host or cells: COS cells (stably transfected)
- test details: Inhibition of human COX-2 in stably transfected COS cells (PGE2 release)
- Type: cell-based
- condition summary: COS cells stably transfected with human COX-2
recorded metric: IC50

• COc1ccc(-c2nn3ncccc3c2-c2ccc(S(C)(=O)=O)cc2)cc1 [2.2(ii)] = < 10 nM

====

- subject of test: microsomal h-COX2 (Homo sapiens, UniProt P35354)
- Construct: made in house; host or cells: baculovirus infected SF9 cells (microsomal preparation)
- Sequence (P35354 18-604): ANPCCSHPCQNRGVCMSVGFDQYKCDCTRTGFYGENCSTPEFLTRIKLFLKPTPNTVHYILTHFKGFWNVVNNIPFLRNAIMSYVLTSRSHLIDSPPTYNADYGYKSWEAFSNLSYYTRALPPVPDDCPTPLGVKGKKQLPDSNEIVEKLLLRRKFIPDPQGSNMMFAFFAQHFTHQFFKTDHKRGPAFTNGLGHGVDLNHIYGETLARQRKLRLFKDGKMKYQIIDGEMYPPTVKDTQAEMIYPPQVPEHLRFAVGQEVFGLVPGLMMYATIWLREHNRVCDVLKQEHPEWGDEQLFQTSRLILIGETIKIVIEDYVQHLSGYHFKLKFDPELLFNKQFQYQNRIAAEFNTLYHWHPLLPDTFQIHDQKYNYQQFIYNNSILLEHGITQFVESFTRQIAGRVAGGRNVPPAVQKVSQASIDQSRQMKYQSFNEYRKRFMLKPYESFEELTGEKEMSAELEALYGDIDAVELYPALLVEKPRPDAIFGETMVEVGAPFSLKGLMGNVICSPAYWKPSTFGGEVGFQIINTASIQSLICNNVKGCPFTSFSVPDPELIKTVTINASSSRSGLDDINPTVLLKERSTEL
- test details: Microsomal assay, COX-2 (microsomal preparation from baculovirus infected SF9 cells)
- Assay type: biochemical
- condition summary: stated in text after the microsomal assay table; read-out: IC50 values for inhibition of COX-2
recorded metric: IC50

• CS(=O)(=O)c1ccc(-c2cc(C(F)(F)F)cc(OCc3ccccn3)n2)cc1 = ≤ 500 nM

====

- subject of test: human COX-1 (Homo sapiens, UniProt P23219)
- Sequence (P23219 24-599): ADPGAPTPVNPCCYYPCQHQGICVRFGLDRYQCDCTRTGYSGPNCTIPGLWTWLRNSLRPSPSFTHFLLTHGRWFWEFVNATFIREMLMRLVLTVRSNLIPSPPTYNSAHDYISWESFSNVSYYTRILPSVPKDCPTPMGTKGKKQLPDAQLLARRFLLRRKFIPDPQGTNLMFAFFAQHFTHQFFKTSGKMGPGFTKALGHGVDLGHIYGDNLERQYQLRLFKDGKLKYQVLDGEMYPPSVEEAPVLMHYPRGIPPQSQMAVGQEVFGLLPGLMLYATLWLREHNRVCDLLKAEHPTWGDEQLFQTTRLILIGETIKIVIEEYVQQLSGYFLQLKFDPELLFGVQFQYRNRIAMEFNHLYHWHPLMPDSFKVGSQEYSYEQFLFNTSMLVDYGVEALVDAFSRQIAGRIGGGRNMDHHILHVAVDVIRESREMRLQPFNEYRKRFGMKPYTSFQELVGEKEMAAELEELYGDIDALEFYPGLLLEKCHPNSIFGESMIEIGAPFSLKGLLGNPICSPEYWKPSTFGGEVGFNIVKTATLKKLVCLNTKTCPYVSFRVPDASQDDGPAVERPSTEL
- test details: Inhibition of human COX-1 in stably transfected COS cells (PGE2 release)
- condition summary: COS cells stably transfected with human COX-1
pIC50: −log10 of the molar value.
# pIC50 listing for each entry below
recorded metric: pIC50

* CS(=O)(=O)c1ccc(-c2c(-c3cccc(F)c3)nn3nc(OC(F)F)ccc23)cc1 | < 4.26
* CCOc1ccc(-c2nn3ncccc3c2-c2ccc(S(C)(=O)=O)cc2)cc1 | < 4.00
* CS(=O)(=O)c1ccc(-c2c(-c3ccc(F)cc3)nn3nc(OC(F)F)ccc23)cc1 | < 4.00
* CS(=O)(=O)c1ccc(-c2c(-c3ccc(OC(F)F)cc3)nn3ncccc23)cc1 | < 4.00
